Origin of the recorded values: ChEMBL document CHEMBL2434846

Tested on: PBMC
Assay: Cytotoxicity against human PBMC after 72 hrs by MTT assay
Type: cell-based
List of pIC50 values.
Expect pIC50 as a plain number equal to -log10 of the molar concentration.

COc1c(C)c2c(c(O)c1C/C=C(\C)CCC(=O)N[C@H](Cc1ccccc1)C(=O)O)C(=O)OC2    6.82
COc1c(C)c2c(c(O)c1C/C=C(\C)CCC(=O)O)C(=O)OC2    7.36
COc1c(C)c2c(c(O)c1C/C=C(\C)CCC(=O)N[C@@H](C(=O)O)C(C)C)C(=O)OC2    5.53
COC(=O)[C@@H](NC(=O)CC/C(C)=C/Cc1c(O)c2c(c(C)c1OC)COC2=O)C(C)C    6.80
COc1c(C)c2c(c(O)c1C/C=C(\C)CCC(=O)N[C@@H](CCC(=O)O)C(=O)O)C(=O)OC2    5.37

In one line, give reported pIC50 of the entry COc1c(C)c2c(c(O)c1C/C=C(\C)CCC(=O)N[C@H](C)C(=O)O)C(=O)OC2 .
8.48

In one line, give reported pIC50 of the entry COC(=O)[C@@H](CC(C)C)NC(=O)CC/C(C)=C/Cc1c(O)c2c(c(C)c1OC)COC2=O .
6.17
